# Target: T1, orthogonal hCD122 receptor (hoRb), hCD122 with H133D and Y134F (human, UniProt P14784 27-550); further: reference of the scale not given here
# T1 sequence: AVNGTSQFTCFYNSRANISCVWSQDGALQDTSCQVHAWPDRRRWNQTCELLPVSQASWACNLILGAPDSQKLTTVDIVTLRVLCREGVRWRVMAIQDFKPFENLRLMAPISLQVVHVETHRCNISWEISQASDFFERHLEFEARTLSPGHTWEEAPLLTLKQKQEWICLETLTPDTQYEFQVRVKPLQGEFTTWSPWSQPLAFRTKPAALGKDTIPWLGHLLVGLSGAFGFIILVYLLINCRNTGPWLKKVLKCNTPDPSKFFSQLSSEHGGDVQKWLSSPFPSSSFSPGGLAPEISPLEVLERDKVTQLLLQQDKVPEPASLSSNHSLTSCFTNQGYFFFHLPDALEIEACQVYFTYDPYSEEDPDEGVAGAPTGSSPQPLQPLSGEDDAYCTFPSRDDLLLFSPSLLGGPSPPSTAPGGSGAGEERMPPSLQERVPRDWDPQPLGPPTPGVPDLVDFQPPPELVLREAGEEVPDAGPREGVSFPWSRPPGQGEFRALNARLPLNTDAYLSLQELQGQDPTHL
# Assay: cell-based or functional assay
The binders listed here are annotated with their Relative Proliferation Fold Change 3F8 1:50.
Test Readout: Relative Proliferation Fold Change 3F8 1:50 (fold)

| Binder | Experimental Value |
| --- | --- |
| L18T, SQVLKA (ligand) APTSSSTKKTQLQLSQLTVLLKAILNGINNYKNPKLTRMLTFKFYMPKKATELKHLQCLEEELKPLEEVLNLAQSKNFHLRPRDLISNINVIVLELKGSETTFMCEYADETATIVEFLNRWITFCQSIISTLT | 13.8 |
| Q126H, SQVLKA (ligand) APTSSSTKKTQLQLSQLLVLLKAILNGINNYKNPKLTRMLTFKFYMPKKATELKHLQCLEEELKPLEEVLNLAQSKNFHLRPRDLISNINVIVLELKGSETTFMCEYADETATIVEFLNRWITFCHSIISTLT | 14.5 |
| ΔL19, SQ_LKA (ligand) APTSSSTKKTQLQLSQLLLLKAILNGINNYKNPKLTRMLTFKFYMPKKATELKHLQCLEEELKPLEEVLNLAQSKNFHLRPRDLISNINVIVLELKGSETTFMCEYADETATIVEFLNRWITFCQSIISTLT | 1.98 |
| T3R, SQVLKA (ligand) APRSSSTKKTQLQLSQLLVLLKAILNGINNYKNPKLTRMLTFKFYMPKKATELKHLQCLEEELKPLEEVLNLAQSKNFHLRPRDLISNINVIVLELKGSETTFMCEYADETATIVEFLNRWITFCQSIISTLT | 5.3 |
| V91R, SQVLKA (ligand) APTSSSTKKTQLQLSQLLVLLKAILNGINNYKNPKLTRMLTFKFYMPKKATELKHLQCLEEELKPLEEVLNLAQSKNFHLRPRDLISNINRIVLELKGSETTFMCEYADETATIVEFLNRWITFCQSIISTLT | 2.93 |
| ΔA1, SQVLKA (ligand) PTSSSTKKTQLQLSQLLVLLKAILNGINNYKNPKLTRMLTFKFYMPKKATELKHLQCLEEELKPLEEVLNLAQSKNFHLRPRDLISNINVIVLELKGSETTFMCEYADETATIVEFLNRWITFCQSIISTLT | 11.7 |
| SQVLVA (ligand) APTSSSTKKTQLQLSQLLVLLVAILNGINNYKNPKLTRMLTFKFYMPKKATELKHLQCLEEELKPLEEVLNLAQSKNFHLRPRDLISNINVIVLELKGSETTFMCEYADETATIVEFLNRWITFCQSIISTLT | 2.1 |
